All figures here come from PubChem BioAssay AID1257.

tested on: Neuropeptide Y receptor type 2 (Homo sapiens) (UniProt P49146)
Sequence (P49146 whole entry, looked up): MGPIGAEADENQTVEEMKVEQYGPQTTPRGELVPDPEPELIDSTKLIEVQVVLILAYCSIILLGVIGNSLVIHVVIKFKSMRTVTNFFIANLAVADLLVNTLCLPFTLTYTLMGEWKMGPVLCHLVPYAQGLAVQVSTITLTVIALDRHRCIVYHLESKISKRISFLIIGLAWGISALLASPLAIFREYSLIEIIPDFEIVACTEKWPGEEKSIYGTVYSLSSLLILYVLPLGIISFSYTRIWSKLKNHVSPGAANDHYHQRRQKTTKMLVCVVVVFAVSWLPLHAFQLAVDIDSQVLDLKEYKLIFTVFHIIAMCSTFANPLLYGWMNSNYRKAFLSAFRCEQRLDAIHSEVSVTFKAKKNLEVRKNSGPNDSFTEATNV
test summary: NPY-Y2 receptor antagonists, retest of hits, confirmation, HEK293-CNG cells, membrane potential fluorescence, triplicate (AID 1257)
recorded conditions: HEK293 NPY-Y2 CNG channel, at 2.8 µM
This is one part of the list. Activity calls are given as the source filed them.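 How the source made its calls: active means mean inhibition of triplicate wells above the hit cutoff set in the primary screen (cut at about 17% in these data); inactive means the rest.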
Respond with a class label; see active, inactive

INSERT INTO results (compound, tested_on, group) VALUES
  ('Cc1cccc(OCC(O)Cn2c(=N)n(CCN3CCOCC3)c3ccccc32)c1 (configuration not stated)', 'Neuropeptide Y receptor type 2 (Homo sapiens) (UniProt P49146)', 'inactive'),
  ('Cc1ccc(CCC(=O)Nc2ncc(Cc3cc(Cl)ccc3Cl)s2)o1', 'Neuropeptide Y receptor type 2 (Homo sapiens) (UniProt P49146)', 'active'),
  ('N#Cc1ccc(C(c2nnnn2CCc2ccccc2)N2CCCCCC2)cc1 (configuration not stated)', 'Neuropeptide Y receptor type 2 (Homo sapiens) (UniProt P49146)', 'inactive');

Now consider a different compound.
Exercise: Tell me the assay call for CCCCCNC(=O)Cc1ccc(OC)cc1 please.
Key: inactive
